- Test system: CEM (human lymphoblastoid leukemia)
- assay: In vitro cytotoxic activity, Calcein AM
- Assay type: cell-based
- setup-conditions: Homo sapiens, 72 h, three days
// GI50 lookup, one value per entry

{"compound": "CC[C@H](CO)Nc1nc(Nc2ccc(Br)cc2)c2[nH]nc(C(C)C)c2n1", "GI50 (µM)": 6.5}
{"compound": "Cc1n[nH]c2c(NCc3cc(O)c(Cl)cc3O)nc(NCCO)nc12", "GI50 (µM)": 1.5}
{"compound": "Cc1n[nH]c2c(Nc3ccc(Br)cc3)nc(NCCO)nc12", "GI50 (µM)": 8.5}
{"compound": "CCC(CO)Nc1nc(NC(CO)c2ccccc2)c2[nH]nc(C(C)C)c2n1 (centres unmarked)", "GI50 (µM)": 7.9}
{"compound": "CC(C)c1n[nH]c2c(Nc3cccc(Cl)c3)nc(NCCO)nc12", "GI50 (µM)": 18}
{"compound": "Cc1n[nH]c2c(Nc3ccc(N)c(Cl)c3)nc(NCCO)nc12", "GI50 (µM)": 16.2}
{"compound": "CC[C@H](CO)Nc1nc(NCc2ccc(Cl)c(O)c2O)c2[nH]nc(C(C)C)c2n1", "GI50 (µM)": 3.1}
{"compound": "CC(C)c1n[nH]c2c(Nc3ccc(N)c(Cl)c3)nc(N[C@@H](CO)C(C)C)nc12", "GI50 (µM)": 2.5}
{"compound": "CC(C)c1n[nH]c2c(NCc3ccc(O)c(O)c3)nc(N[C@@H](CO)C(C)C)nc12", "GI50 (µM)": 4.2}
{"compound": "CC[C@H](CO)Nc1nc(Nc2ccc(N)c(Cl)c2)c2[nH]nc(C(C)C)c2n1", "GI50 (µM)": 12.2}
{"compound": "CC(C)c1n[nH]c2c(NCc3ccccc3)nc(NC3CCCCC3N)nc12 (centres unmarked)", "GI50 (µM)": 14}
{"compound": "Cc1n[nH]c2c(N(C)Cc3ccc(O)c(O)c3)nc(NCCO)nc12", "GI50 (µM)": 10.3}
{"compound": "CC(=O)Oc1cccc(CNc2nc(NCCO)nc3c(C)n[nH]c23)c1", "GI50 (µM)": 15.4}
{"compound": "CC[C@H](CO)Nc1nc(NCc2ccccc2C(C)=O)c2[nH]nc(C(C)C)c2n1", "GI50 (µM)": 11.9}
{"compound": "CC[C@H](CO)Nc1nc(NCc2cccc(OC)c2O)c2[nH]nc(C(C)C)c2n1", "GI50 (µM)": 3.1}
{"compound": "COc1ccc(CNc2nc(N[C@@H](CO)C(C)C)nc3c(C(C)C)n[nH]c23)c(O)c1O", "GI50 (µM)": 0.6}
{"compound": "CC[C@H](CO)Nc1nc(Nc2ccccc2)c2[nH]nc(C(C)C)c2n1", "GI50 (µM)": 13.2}
{"compound": "CC[C@H](CO)Nc1nc(Nc2ccc(Cl)c(N)c2)c2[nH]nc(C(C)C)c2n1", "GI50 (µM)": 4.7}
{"compound": "CC(C)c1n[nH]c2c(NCc3c(N)cccc3Cl)nc(N[C@@H](CO)C(C)C)nc12", "GI50 (µM)": 1.5}
{"compound": "Cc1n[nH]c2c(Nc3cc(N)cc(Cl)c3)nc(NCCO)nc12", "GI50 (µM)": 13.4}
{"compound": "Cc1n[nH]c2c(NCc3ccccc3)nc(NCCCO)nc12", "GI50 (µM)": 40}
{"compound": "CC[C@H](CO)Nc1nc(NCc2cccc(Cl)c2O)c2[nH]nc(C(C)C)c2n1", "GI50 (µM)": 1.2}
{"compound": "CC(C)c1n[nH]c2c(NCc3ccccc3)nc(N[C@@H](CO)C(C)C)nc12", "GI50 (µM)": 2.2}
{"compound": "CC[C@H](CO)Nc1nc(NCc2c(N)cccc2Cl)c2[nH]nc(C(C)C)c2n1", "GI50 (µM)": 4.6}
{"compound": "Cc1cccc(CNc2nc(NCCO)nc3c(C)n[nH]c23)c1O", "GI50 (µM)": 2.8}
{"compound": "CC(C)c1n[nH]c2c(Nc3cccc(Cl)c3)nc(NCCCN)nc12", "GI50 (µM)": 15}
{"compound": "CC[C@H](CO)Nc1nc(NCc2cccc(C)c2O)c2[nH]nc(C(C)C)c2n1", "GI50 (µM)": 1.9}
{"compound": "Cc1cccc(CNc2nc(N[C@@H](CO)C(C)C)nc3c(C(C)C)n[nH]c23)c1O", "GI50 (µM)": 1.2}
{"compound": "Cc1n[nH]c2c(Nc3ccc(Cl)c(C(=O)O)c3)nc(NCCO)nc12", "GI50 (µM)": 6.5}
{"compound": "CC(C)c1n[nH]c2c(NCc3cccc(Cl)c3O)nc(N[C@@H](CO)C(C)C)nc12", "GI50 (µM)": 0.7}
{"compound": "CC(C)c1n[nH]c2c(Nc3cccc(Cl)c3)nc(NC3CCCCC3N)nc12 (centres unmarked)", "GI50 (µM)": 14}
{"compound": "COc1cc(O)c(CNc2nc(NCCO)nc3c(C)n[nH]c23)c(O)c1", "GI50 (µM)": 2.8}
